Items are presented alongside their recorded ΔTm.
target: UniProtKB Q01782; test: Binding affinity to Leishmania major recombinant N-terminal hexa-His tagged PTR1 expressed in Escherichia coli BL21(DE3) assessed as change in melting temperature at 50 uM at pH 4.7 by SYPRO orange dye based thermal shift assay
Write the value in °C as a bare number.

{"chemicalString": "O=C1NC(=O)/C(=C/c2ccc(Cl)c(Cl)c2)S1", "valueMeasured": 3.01}
{"chemicalString": "O=C1NC(=O)/C(=C/c2c(F)cccc2Br)S1", "valueMeasured": 1.7}

Here's the next entry for you.
Provide ΔTm value for the following molecule: O=C1NC(=O)/C(=C/c2cc(Cl)cc(Br)c2O)S1 11

* * *

biological target: Pteridine reductase 1 (Leishmania major); test: Inhibition of Leishmania major recombinant N-terminal hexa-His tagged PTR1 catalytic activity expressed in Escherichia coli BL21(DE3) using biopterin as substrate measured for 60 sec in presence of NADPH by UV-visible spectrophotometric method relative to control
recordedEndpoint: pIC50
Just so you know, pIC50 here is -log10 of the concentration in molar units; reply with that number alone.

Worked examples follow.
{"chemicalString": "O=C1NC(=O)/C(=C/c2c(F)cccc2Br)S1", "pIC50": 3.23}
{"chemicalString": "O=C1NC(=O)/C(=C/c2cc(Cl)ccc2O)S1", "pIC50": 4.12}

Here's the next entry for you.
Under Pteridine reductase 1 (Leishmania major), report pIC50 for O=C1NC(=O)/C(=C/c2cc(Cl)cc(Br)c2O)S1 4.35

* * *

Items are presented alongside their recorded ΔTm.
Biological target: UniProt:Q01782
Sequence (whole entry): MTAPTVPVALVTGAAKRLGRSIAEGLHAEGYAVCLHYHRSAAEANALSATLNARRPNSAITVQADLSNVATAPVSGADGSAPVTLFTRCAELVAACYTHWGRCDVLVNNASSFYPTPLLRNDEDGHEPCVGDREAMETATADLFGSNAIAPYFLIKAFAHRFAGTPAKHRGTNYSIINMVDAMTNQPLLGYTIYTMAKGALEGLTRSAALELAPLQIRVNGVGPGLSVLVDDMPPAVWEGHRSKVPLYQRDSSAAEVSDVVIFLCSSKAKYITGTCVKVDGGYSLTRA
Experiment: Binding affinity to Leishmania major recombinant N-terminal hexa-His tagged PTR1 expressed in Escherichia coli BL21(DE3) assessed as change in melting temperature at 50 uM at pH 4.7 by SYPRO orange dye based thermal shift assay

Worked examples follow.
{"chemicalString": "O=C1NC(=O)/C(=C/c2cc(Cl)ccc2O)S1", "recordedEndpoint": "ΔTm", "valueMeasured": "> 1 °C"}
{"chemicalString": "COc1ccc(Br)c(/C=C2\\SC(=O)NC2=O)c1", "recordedEndpoint": "ΔTm", "valueMeasured": "> 1 °C"}
{"chemicalString": "O=C1NC(=O)/C(=C/c2ccc(Cl)cc2Cl)S1", "recordedEndpoint": "ΔTm", "valueMeasured": "> 1 °C"}

Here's the next entry for you.
Provide ΔTm value for the following molecule: O=C1NC(=O)/C(=C/c2c(Cl)cccc2Cl)S1 < 1 °C
